target: ARAF (Homo sapiens, UniProt P10398); construct: ARAF kinase reactions were rigorously the same with the exception that kinase concentration was raised to 3.75 nM (cat. No. 1768-0000-1; Reaction Biology); experiment: ARAF kinase activity assay (AlphaLISA p-MEK 1/2); assay type: biochemical; conditions: Table A; 10 μM ATP, kinase-dead MEK1 substrate
Sequence (P10398 303-606 limits assumed): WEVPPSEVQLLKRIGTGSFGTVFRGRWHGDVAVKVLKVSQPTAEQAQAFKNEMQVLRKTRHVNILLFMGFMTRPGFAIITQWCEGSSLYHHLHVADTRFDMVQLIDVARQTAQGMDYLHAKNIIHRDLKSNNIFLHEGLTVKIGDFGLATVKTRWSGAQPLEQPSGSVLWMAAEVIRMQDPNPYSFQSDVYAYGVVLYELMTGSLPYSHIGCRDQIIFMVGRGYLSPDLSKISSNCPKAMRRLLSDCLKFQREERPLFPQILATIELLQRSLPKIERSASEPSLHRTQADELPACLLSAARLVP
QUANTITY_KIND: IC50

Example compounds with recorded IC50:
O=C1CCc2c(Oc3ccc4c(c3)[C@@H]3[C@H](O4)[C@H]3c3nc4ccc(C(F)(F)F)cc4[nH]3)ccnc2N1: > 10 nM
Cc1c(F)cccc1S(=O)(=O)Nc1ccc(F)c(Nc2ncnc3sc(-n4cc(C(=O)N5C6CCC5CN(C)C6)c5ccccc54)nc23)c1F: 1 to 10 nM
N#CC1(c2cccc3c2ncn3-c2nc3c(Nc4c(F)ccc(NS(=O)(=O)c5cccc(Cl)c5Cl)c4F)ncnc3s2)CC1: 1 to 10 nM
Cc1ccc2c(Nc3cccc(Cl)c3F)nccc2c1NC(=O)c1csc2c(N)ncnc12 [Belvarafenib, reference compound]: > 10 nM

Give the value of IC50 reported for the following: `Cc1ccc(NC(=O)c2ccnc(C(F)(F)F)c2)cc1-c1cc(OCCO)nc(N2CCOCC2)c1`
> 10 nM

Source listed as patent US20260137697A1.
